Each entry below carries its reported pest or weed control at 80 g/ha.
# Tested on: ECHCG
# experiment.notes: Pre-emergence herbicidal action against ECHCG
# Assay type: in vivo, Echinochloa crus-galli
# stated.conditions: Echinochloa crus-galli, 504 h, 80 g/ha
Provide only the numeric value, understood in %.

| compound | pest or weed control at 80 g/ha [%] |
| --- | --- |
| CCn1nnnc1NC(=O)c1ccc(Br)c(C(=O)NC2CC2)c1Br [Example 2-343] | 90 |
| CCNC(=O)c1c(C(F)(F)F)ccc(C(=O)Nc2nnnn2C)c1Cl [Example 1-130] | 100 |
| CCNC(=O)c1c(C(F)(F)F)ccc(C(=O)Nc2nnnn2C)c1SC [Example 1-82] | 100 |
| CCn1nnnc1NC(=O)c1ccc(C(F)(F)F)c(C(=O)NC2CC2)c1OC [Example 2-58] | 100 |

Could you now consider this next compound?
Consider CCn1nnnc1NC(=O)c1ccc(C(F)(F)F)c(C(=O)NC)c1Cl [Example 2-129] . Its measured pest or weed control at 80 g/ha is 100
